- test.method.notes: AUC in Sprague-Dawley rat at 1 mg/kg, iv and 3 mg/kg, po
- Type: ADME, organism-based
- experimental.conditions: plasma
readout.name: AUC (µM·h)
All answers are understood in µM·h, so give the number only.

AUC for CCS(=O)(=O)c1ccc(Oc2cc3nc(-c4ccccn4)[nH]c3cc2CN2C(=O)CCC2=O)cc1 is 0.5

---

- test.method.notes: Cmax in Sprague-Dawley rat at 1 mg/kg, iv and 3 mg/kg, po
- Type: ADME, organism-based
- experimental.conditions: in vivo
readout.name: Cmax (nM)
A number alone suffices; assume nM.

// CCS(=O)(=O)c1ccc(Oc2cc3nc(-c4ccccn4)[nH]c3cc2CN2C(=O)CCC2=O)cc1 : Cmax value = 400

---

- target.or.system: Hexokinase-4 (Homo sapiens)
- test.method.notes: Activation of human liver glucokinase expressed in Escherichia coli at 10 mM glucose concentration by glucose-6-phosphate coupled continuous spectrophotometric assay
readout.name: pEC50
pEC50 field: float, defined as -log10 of concentration (mol/L).

line_notation=CCS(=O)(=O)c1ccc(Oc2cc3nc(-c4ccccn4)[nH]c3cc2Cc2nnnn2C)cc1 readout_name=pEC50 result_value=7.15
line_notation=CCS(=O)(=O)c1ccc(Oc2cc3nc(-c4ccccn4)[nH]c3cc2CN2CCN(C)C2=O)cc1 readout_name=pEC50 result_value=7.10
line_notation=CCN(Cc1cc2nc(-c3ccccn3)[nH]c2cc1Oc1ccc(S(=O)(=O)CC)cc1)C(C)=O readout_name=pEC50 result_value=6.96
line_notation=CCS(=O)(=O)c1ccc(Oc2cc3nc(-c4ccccn4)[nH]c3cc2CNC(C)=O)cc1 readout_name=pEC50 result_value=6.66
line_notation=CCS(=O)(=O)c1ccc(Oc2cc3nc(-c4ccccn4)[nH]c3cc2CN2C(=O)CN(C)C2=O)cc1 readout_name=pEC50 result_value=7.22
line_notation=CCS(=O)(=O)c1ccc(Oc2cc3nc(-c4ccccn4)[nH]c3cc2CN2C(=O)COC2=O)cc1 readout_name=pEC50 result_value=7.70

// sample CCS(=O)(=O)c1ccc(Oc2cc3nc(-c4ccccn4)[nH]c3cc2CN2CCCS2(=O)=O)cc1 , its pEC50 was 7.05

Looking up CCS(=O)(=O)c1ccc(Oc2cc3nc(-c4ccccn4)[nH]c3cc2CN2CCOCC2=O)cc1 , I see its pEC50 listed as 7.00

Entry CCS(=O)(=O)c1ccc(Oc2cc3nc(-c4ccccn4)[nH]c3cc2CN(C)C(C)=O)cc1 , pEC50 reported as 7.15

Lab note: measured pEC50 of CCS(=O)(=O)c1ccc(Oc2cc3nc(-c4ccccn4)[nH]c3cc2CN2CCOC2=O)cc1 was 7.22

The measured pEC50 associated with CCS(=O)(=O)c1ccc(Oc2cc3nc(-c4ccccn4)[nH]c3cc2CN2C(=O)CCC2=O)cc1 reads 7.40

---

- test.method.notes: Half life in Sprague-Dawley rat at 1 mg/kg, iv and 3 mg/kg, po
- Assay type: ADME, organism-based
- experimental.conditions: in vivo
readout.name: half-life
Field: value (include unit after the number)

# half-life (compound: CCS(=O)(=O)c1ccc(Oc2cc3nc(-c4ccccn4)[nH]c3cc2CN2C(=O)CCC2=O)cc1 ) is 36 min

---

- test.method.notes: Cmax in Beagle dog at 0.3 mg/kg, iv and 1 mg/kg, po
- experimental.conditions: in vivo
readout.name: Cmax (µM)
Please respond with the number in µM and leave the unit unwritten.

The compound listed as CCS(=O)(=O)c1ccc(Oc2cc3nc(-c4ccccn4)[nH]c3cc2CN2C(=O)CCC2=O)cc1 has a reported Cmax of 0.4

---

- Test system: Mus musculus
- test.method.notes: Hypoglycemic efficacy in high-fat diet-induced mouse assessed as acute glucose lowering at 10 mg/kg, po
- Format: functional, organism-based
- Set-up: dose 10 mg/kg
Active and inactive are the calls of the source. No cut-off for these calls is given here.
Write down one outcome, taken from 1 for active, -1 for inactive

Sample answers from the record:
line_notation=CCS(=O)(=O)c1ccc(Oc2cc3nc(-c4ccccn4)[nH]c3cc2CN(C)C(C)=O)cc1 label_class=1
line_notation=CCS(=O)(=O)c1ccc(Oc2cc3nc(-c4ccccn4)[nH]c3cc2CN2CCCC2=O)cc1 label_class=1
line_notation=CCS(=O)(=O)c1ccc(Oc2cc3nc(-c4ccccn4)[nH]c3cc2CN2C(=O)CCC2=O)cc1 label_class=1
line_notation=CCS(=O)(=O)c1ccc(Oc2cc3nc(-c4ccccn4)[nH]c3cc2CN2C(=O)COC2=O)cc1 label_class=-1

Turning to the following compound.
In this assay, the call recorded for CCS(=O)(=O)c1ccc(Oc2cc3nc(-c4ccccn4)[nH]c3cc2CN2CCOC2=O)cc1 was what?
-1

---

- test.method.notes: AUC in Beagle dog at 0.3 mg/kg, iv and 1 mg/kg, po
- experimental.conditions: plasma
readout.name: AUC
Include the unit right after the number.

Lookup result for CCS(=O)(=O)c1ccc(Oc2cc3nc(-c4ccccn4)[nH]c3cc2CN2C(=O)CCC2=O)cc1 ; measured AUC: 4 µM·h

---

- test.method.notes: Oral bioavailability in Beagle dog at 1 mg/kg, po
- experimental.conditions: in vivo
readout.name: bioavailability (%)
Provide the reading as a plain figure in %.

Looking up CCS(=O)(=O)c1ccc(Oc2cc3nc(-c4ccccn4)[nH]c3cc2CN2C(=O)CCC2=O)cc1 , I found its bioavailability recorded as 41

---

- target.or.system: Hexokinase-4 (Homo sapiens, UniProt P35557)
- Sequence (P35557 whole entry): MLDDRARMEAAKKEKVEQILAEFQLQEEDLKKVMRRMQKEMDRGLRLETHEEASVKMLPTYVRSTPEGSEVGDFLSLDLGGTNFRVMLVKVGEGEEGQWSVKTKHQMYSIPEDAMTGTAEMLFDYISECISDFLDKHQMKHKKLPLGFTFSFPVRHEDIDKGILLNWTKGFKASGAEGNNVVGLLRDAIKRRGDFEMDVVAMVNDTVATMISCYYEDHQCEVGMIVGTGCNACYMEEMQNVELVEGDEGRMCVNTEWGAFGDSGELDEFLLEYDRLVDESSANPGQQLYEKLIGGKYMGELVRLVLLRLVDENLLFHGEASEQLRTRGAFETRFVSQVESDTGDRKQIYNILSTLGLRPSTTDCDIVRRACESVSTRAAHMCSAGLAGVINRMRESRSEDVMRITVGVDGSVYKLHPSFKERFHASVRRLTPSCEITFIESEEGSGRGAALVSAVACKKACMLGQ
- test.method.notes: Activation of human liver glucokinase expressed in Escherichia coli at 10 mM glucose concentration by glucose-6-phosphate coupled continuous spectrophotometric assay
readout.name: pEC50
Convention used: pEC50 is expressed as -log10 of the molar concentration.

Record excerpt, results attached:
line_notation=CCS(=O)(=O)c1ccc(Oc2cc3[nH]c(-c4ccccn4)nc3cc2CCC(=O)N(C)C)cc1 result_value=6.92
line_notation=CCS(=O)(=O)c1ccc(Oc2cc3nc(-c4ccccn4)[nH]c3cc2Cn2ccnc2)cc1 result_value=6.92

Quick note, pEC50 for CCS(=O)(=O)c1ccc(Oc2cc3nc(-c4ccccn4)[nH]c3cc2CN2CCCC2=O)cc1 landed at 7.22

Value source: ChEMBL document CHEMBL1152594
